- Test system: MARIMO
- protocol-text: cell viability relative to vehicle control; higher = less cytotoxic;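 note: after 48 h exposure read by CellTiter-Glo luminescence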
- condition-notes: 10 µM; SRSF2 genotype: SRSF2 P95H/wt
Counter-ions that a name gives are not always drawn.
cell viability values by entry
property-label: cell viability (%)

{"molecule": "C=C(C)[C@H]1Cc2c(ccc3c2O[C@@H]2COc4cc(OC)c(OC)cc4[C@@H]2C3=O)O1", "property-label": "cell viability", "unit-spec": "%", "assay-result": 5.86}
{"molecule": "CC(C)[C@]12O[C@H]1[C@@H]1O[C@@]13[C@@]1(C)CCC4=C(COC4=O)[C@@H]1C[C@@H]1O[C@@]13C2=O [Triptonide]", "property-label": "cell viability", "unit-spec": "%", "assay-result": 12.8}
{"molecule": "COC1=C[C@]23CCCN2CCc2cc4c(cc2[C@@H]3[C@@H]1O)OCO4", "property-label": "cell viability", "unit-spec": "%", "assay-result": 91}
{"molecule": "CCC(COC(=O)c1cc(OC)c(OC)c(OC)c1)(c1ccccc1)N(C)C (stereo unspecified)", "property-label": "cell viability", "unit-spec": "%", "assay-result": 87.4}
{"molecule": "O=c1[nH]c2ccccc2o1", "property-label": "cell viability", "unit-spec": "%", "assay-result": 97.2}
{"molecule": "O=C1CCC[C@@H]2[C@H]3CCCN4CCC[C@@H](CN12)[C@@H]34 [Matrine ((+)-Matrine)]", "property-label": "cell viability", "unit-spec": "%", "assay-result": 107}
{"molecule": "COc1ccc(C(CN(C)C)C2(O)CCCCC2)cc1 (stereo unspecified) [Venlafaxine HCl]", "property-label": "cell viability", "unit-spec": "%", "assay-result": 95.8}
{"molecule": "CC[C@H](C)[C@@H]([C@@H](CC(=O)N1CCC[C@H]1[C@H](OC)[C@@H](C)C(=O)N[C@H](C)[C@@H](O)c1ccccc1)OC)N(C)C(=O)[C@@H](NC(=O)[C@@H](NC)C(C)C)C(C)C", "property-label": "cell viability", "unit-spec": "%", "assay-result": 7.27}
{"molecule": "CC12NC(Cc3ccccc31)c1ccccc12 (single isomer, unassigned; (+)) [(+)-MK 801 maleate]", "property-label": "cell viability", "unit-spec": "%", "assay-result": 85.7}
{"molecule": "C[C@](O)(COc1ccc(C#N)cc1)C(=O)Nc1ccc(C#N)c(C(F)(F)F)c1", "property-label": "cell viability", "unit-spec": "%", "assay-result": 98.7}
{"molecule": "CC1C(=O)OC2C(O)C34C5OC(=O)C3(OC3OC(=O)C(O)C34C(C(C)(C)C)C5O)C12O (stereo unspecified) [Ginkgolide C]", "property-label": "cell viability", "unit-spec": "%", "assay-result": 93.5}
{"molecule": "CC1CCC2N(C1)CC1C3CC4C(CC(=O)C5CC(O)CCC54C)C3CCC1C2(C)O (stereo unspecified)", "property-label": "cell viability", "unit-spec": "%", "assay-result": 107}
{"molecule": "Cc1cc(C(=O)CN2CCCC2)c(C)n1-c1ccc(F)cc1", "property-label": "cell viability", "unit-spec": "%", "assay-result": 80.6}
{"molecule": "CC[C@H]1CN2CC[C@H]1C[C@H]2[C@H](O)c1ccnc2ccc(OC)cc12 [Hydroquinine]", "property-label": "cell viability", "unit-spec": "%", "assay-result": 97.5}
{"molecule": "CC(C)c1ccc(CO)cc1", "property-label": "cell viability", "unit-spec": "%", "assay-result": 99.9}
{"molecule": "CC[N+](C)(CC)CCOC(=O)C(O)(c1ccccc1)c1ccccc1 [Methylbenactyzine Bromide]", "property-label": "cell viability", "unit-spec": "%", "assay-result": 97.7}

---

- Tested on: K562
- protocol-text: cell viability relative to vehicle control; higher = less cytotoxic
- condition-notes: 10 µM; SRSF2 genotype: SRSF2 wt/wt
Structures can show the parent of a compound that is named as a salt.
property-label: cell viability (%)

{"compound": "Cc1cccc(Cc2c[nH]cn2)c1C [Detomidine HCl]", "assay-result": 96.5}
{"compound": "CCCN1C[C@H](CSC)C[C@@H]2c3cccc4[nH]cc(c34)C[C@H]21 [Pergolide mesylate]", "assay-result": 89.7}
{"compound": "CC(C)N(CCNC(=O)CN1CCCC1=O)C(C)C", "assay-result": 104}
{"compound": "O=S(=O)(F)Cc1ccccc1 [PMSF (Phenylmethylsulfonyl Fluoride)]", "assay-result": 97}
{"compound": "CC(C)[C@]12O[C@H]1[C@@H]1O[C@]13[C@]1(O[C@H]1C[C@H]1C4=C(CC[C@@]13C)C(=O)OC4)[C@@H]2O [Triptolide]", "assay-result": 8.7}
{"compound": "CN1C2CC(O)CC1C1OC12 (stereo unspecified)", "assay-result": 95.5}

---

cell viability values by entry
- Test system: MARIMO
- protocol-text: cell viability relative to vehicle control; higher = less cytotoxic
- condition-notes: 10 µM; SRSF2 genotype: SRSF2 wt/wt
property-label: cell viability (%)

{"compound": "O=Cc1ccccc1 [Benzoic aldehyde]", "test-system": "MARIMO", "assay-result": 91.5}
{"compound": "C[C@]12CC[C@H]3[C@@H](CC[C@@]45O[C@@H]4C(O)=C(C#N)C[C@]35C)[C@@H]1CC[C@@H]2O [Trilostane]", "test-system": "MARIMO", "assay-result": 92.5}
{"compound": "CC(C)OC(=O)[C@H](C)N[P@](=O)(CO[C@H](C)Cn1cnc2c(N)ncnc21)Oc1ccccc1 [Tenofovir Alafenamide (GS-7340)]", "test-system": "MARIMO", "assay-result": 91.2}

---

- Tested on: K562
- protocol-text: cell viability relative to vehicle control; higher = less cytotoxic
- condition-notes: 10 µM; SRSF2 genotype: SRSF2 wt/wt

{"compound": "CC(=O)Nc1ccc(Cc2ccc(NC(C)=O)cc2)cc1", "unit-spec": "%", "cell viability": 107}
{"compound": "CC(=O)Nc1ccc(OC[C@](C)(O)C(=O)Nc2ccc([N+](=O)[O-])c(C(F)(F)F)c2)cc1 [Andarine (GTX-007)]", "unit-spec": "%", "cell viability": 107}
{"compound": "C=CC1CN2CCC1CC2C(O)c1ccnc2ccccc12 (configuration not stated) [Cinchonine.cdx]", "unit-spec": "%", "cell viability": 102}
{"compound": "CC1C(=O)OC2C(O)C34C5OC(=O)C3(OC3OC(=O)C(O)C34C(C(C)(C)C)C5O)C12O (configuration not stated) [Ginkgolide C]", "unit-spec": "%", "cell viability": 94.4}
{"compound": "N#CC(C#N)=NNc1ccc(OC(F)(F)F)cc1", "unit-spec": "%", "cell viability": 19.2}
{"compound": "c1cc2c(cc1[C@H]1OC[C@H]3[C@@H]1CO[C@H]3c1ccc3c(c1)OCO3)OCO2 [Asarinin]", "unit-spec": "%", "cell viability": 102}
{"compound": "CCO[C@H]1O[C@@H]2O[C@@]3(C)CC[C@H]4[C@H](C)CC[C@@H]([C@H]1C)[C@@]24OO3 [Arteether]", "unit-spec": "%", "cell viability": 69}
{"compound": "C/C=C\\c1cc(OC)c(OC)cc1OC [Beta-Asarone]", "unit-spec": "%", "cell viability": 104}
{"compound": "CC(C)N(CCC(C(N)=O)(c1ccccc1)c1ccccn1)C(C)C (configuration not stated) [disopyramide phosphate]", "unit-spec": "%", "cell viability": 106}
{"compound": "CCOc1ccccc1-n1c(C(C)N2CCN(C(=O)COc3ccc(Cl)cc3)CC2)nc2ccccc2c1=O (configuration not stated) [Erastin]", "unit-spec": "%", "cell viability": 63}
{"compound": "O=C(NCC1CCOCC1)c1cnc(Nc2ccc(Cl)cc2Cl)nc1C(F)(F)F", "unit-spec": "%", "cell viability": 98}
{"compound": "COP(=O)(OC)SCn1c(=O)oc2cc(Cl)cnc21 [Azamethiphos]", "unit-spec": "%", "cell viability": 78.9}

---

- Test system: MOLM14
- protocol-text: cell viability relative to vehicle control; higher = less cytotoxic
- condition-notes: 10 µM; SRSF2 genotype: SRSF2 wt/wt
Counter-ions that a name gives are not always drawn.

{"compound": "CC12NC(Cc3ccccc31)c1ccccc12 (single isomer, unassigned; (+)) [(+)-MK 801 maleate]", "cell viability, %": 91.5}
{"compound": "CC(C)c1ccc2c(c1O)CC[C@H]1C3=C(CC[C@]21C)C(=O)OC3 [Triptophenolide]", "cell viability, %": 92}
{"compound": "CC[C@H]1CN2CC[C@]3(C(=O)Nc4ccccc43)[C@@H]2C[C@@H]1/C(=C\\OC)C(=O)OC", "cell viability, %": 88.3}

---

- System: MOLM14
- protocol-text: cell viability relative to vehicle control; higher = less cytotoxic
- condition-notes: 10 µM; SRSF2 genotype: SRSF2 wt/wt
Counter-ions that a name gives are not always drawn.
property-label: cell viability (%)

{"compound": "O=C1C2CCN(CC2)C1(CO)CO", "unit-spec": "%", "assay-result": 41.8}
{"compound": "O=C(NCC1CCOCC1)c1cnc(Nc2ccc(Cl)cc2Cl)nc1C(F)(F)F", "unit-spec": "%", "assay-result": 104}
{"compound": "COC(=O)C[C@](O)(CCC(C)(C)O)C(=O)O[C@@H]1C(OC)=C[C@]23CCCN2CCc2cc4c(cc2[C@H]13)OCO4", "unit-spec": "%", "assay-result": 1}
{"compound": "Nc1nc(N)nc(N)n1", "unit-spec": "%", "assay-result": 94.4}
{"compound": "CN1CCc2cc3c(cc2C1C1OC(=O)c2c1ccc1c2OCO1)OCO3 (single isomer, unassigned; (+)) [(+)-Bicuculline]", "unit-spec": "%", "assay-result": 99.5}
{"compound": "C[C@@H]1O[C@@H](O[C@H]2C[C@@H](O)[C@]3(CO)[C@H]4[C@H](O)C[C@]5(C)[C@@H](C6=CC(=O)OC6)CC[C@]5(O)[C@@H]4CC[C@]3(O)C2)[C@H](O)[C@H](O)[C@H]1O", "unit-spec": "%", "assay-result": 0.78}
{"compound": "CC(C)=CCCC(C)(O)C1CCC2(C)C1C(O)CC1C3(C)CCC(O)C(C)(C)C3C(OC3OC(CO)C(O)C(O)C3O)CC12C [20(S)-Ginsenoside Rh1]", "unit-spec": "%", "assay-result": 106}
{"compound": "CCC1CN2CCC3(C(=O)Nc4ccccc43)C2CC1C(=COC)C(=O)OC (stereo unspecified)", "unit-spec": "%", "assay-result": 89.1}
{"compound": "COC1CC(OC2CCC3(C)C4CCC5(C)C(C6=CC(=O)OC6)CCC5(O)C4CCC3(O)C2)OC(C)C1OC1OC(CO)C(O)C(O)C1O (stereo unspecified)", "unit-spec": "%", "assay-result": 0.9}
{"compound": "C[C@]12CCC(=O)C[C@@H]1CC[C@@H]1[C@@H]2CC[C@]2(C)[C@@H](O)CC[C@@H]12 [Dihydrotestosterone (DHT)]", "unit-spec": "%", "assay-result": 102}
{"compound": "Cc1ccccc1-n1c(Cn2ncc3c(N)ncnc32)nc2cccc(C)c2c1=O", "unit-spec": "%", "assay-result": 81.3}
{"compound": "Cc1cccc(C)c1NC1=NCCCS1 [Xylazine HCl]", "unit-spec": "%", "assay-result": 91.5}
{"compound": "CCC1(c2cccc(O)c2)CCCCN(C)C1 (stereo unspecified) [Meptazinol HCl]", "unit-spec": "%", "assay-result": 98.1}
{"compound": "C=CC(=C)C", "unit-spec": "%", "assay-result": 108}
{"compound": "c1cc2c(cc1[C@H]1OC[C@H]3[C@@H]1CO[C@H]3c1ccc3c(c1)OCO3)OCO2", "unit-spec": "%", "assay-result": 103}
{"compound": "Cc1cccc(Cc2c[nH]cn2)c1C [Detomidine HCl]", "unit-spec": "%", "assay-result": 106}
{"compound": "CN1CCCCC1Cn1cc(C(=O)c2cc([N+](=O)[O-])ccc2I)c2ccccc21 (stereo unspecified)", "unit-spec": "%", "assay-result": 2.06}
{"compound": "CC(C)=CCCC(C(=O)O)C1CCC2(C)C3=C(CCC12C)C1(C)CCC(=O)C(C)(C)C1CC3 (stereo unspecified)", "unit-spec": "%", "assay-result": 93.1}
{"compound": "CCC(COC(=O)c1cc(OC)c(OC)c(OC)c1)(c1ccccc1)N(C)C (stereo unspecified) [Trimebutine]", "unit-spec": "%", "assay-result": 104}
{"compound": "Cc1c(Cl)c(OCC(=O)N2CCN(C)CC2)nc2sc(C(=O)NC3CC3)c(N)c12", "unit-spec": "%", "assay-result": 51}
{"compound": "ClC(Cl)=C(c1ccc(Cl)cc1)c1ccc(Cl)cc1", "unit-spec": "%", "assay-result": 105}

Data origin: the supplement of paper PMC10981050
